Target: D(2) dopamine receptor (Homo sapiens, UniProt P14416)
Sequence (P14416 whole entry): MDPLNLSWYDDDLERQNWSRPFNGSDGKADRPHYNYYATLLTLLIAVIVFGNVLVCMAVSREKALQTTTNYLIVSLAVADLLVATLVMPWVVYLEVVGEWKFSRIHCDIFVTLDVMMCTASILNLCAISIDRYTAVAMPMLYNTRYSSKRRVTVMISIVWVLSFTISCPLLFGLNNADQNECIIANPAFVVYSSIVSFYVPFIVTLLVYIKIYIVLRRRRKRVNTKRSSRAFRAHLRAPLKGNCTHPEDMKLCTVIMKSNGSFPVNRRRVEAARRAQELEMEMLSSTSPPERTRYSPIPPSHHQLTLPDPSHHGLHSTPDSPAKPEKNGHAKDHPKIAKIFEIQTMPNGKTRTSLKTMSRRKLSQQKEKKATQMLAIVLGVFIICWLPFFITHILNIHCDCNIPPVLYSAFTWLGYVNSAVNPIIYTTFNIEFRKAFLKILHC
Assay: Displacement of [125I]ABN from human dopamine D2 long receptor expressed in HEK293 cell membranes after 60 mins by scintillation counting method
pKi: −log10 of the molar value.
MEASURED_ENDPOINT: pKi

Consider the following illustrative entries.
Cn1c(SCCCN2CCC3(CC2)CCN(c2ccc(F)cc2)CC3)nnc1-c1ccccc1    5.01
Cn1c(SCCCN2CCC3(CC2)CCN(c2cccc(Cl)c2Cl)CC3)nnc1-c1ccccc1    5.12

a = COc1ccccc1N1CCC2(CN(CCCSc3nnc(-c4ccccc4)n3C)C2)C1
b = COc1ccccc1N1CCC2(CCN(CCCSc3nnc(-c4ccccc4)n3C)CC2)C1
c = COc1ccccc1N1CC2(CCN(CCCSc3nnc(-c4ccccc4)n3C)CC2)C1
// query Write the entries in order, lowest recorded pKi first. Give the labels in the order requested.
// result a, c, b

###

Target protein (sequence): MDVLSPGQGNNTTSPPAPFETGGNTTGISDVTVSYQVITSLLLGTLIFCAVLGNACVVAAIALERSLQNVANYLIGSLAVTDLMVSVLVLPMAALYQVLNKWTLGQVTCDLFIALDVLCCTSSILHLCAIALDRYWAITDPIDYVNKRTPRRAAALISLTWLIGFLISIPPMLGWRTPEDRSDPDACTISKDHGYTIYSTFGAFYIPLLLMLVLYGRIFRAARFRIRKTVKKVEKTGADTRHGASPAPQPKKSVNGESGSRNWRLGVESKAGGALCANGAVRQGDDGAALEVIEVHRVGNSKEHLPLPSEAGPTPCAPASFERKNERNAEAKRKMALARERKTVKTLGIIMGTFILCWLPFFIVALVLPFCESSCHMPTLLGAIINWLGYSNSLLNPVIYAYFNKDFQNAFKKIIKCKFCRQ
MEASURED_ENDPOINT: Ki (µM)
Give your result in µM as a bare value.

Documented Ki of Cn1c(SCCCN2CCC3(CC2)CCN(c2ccc(F)cc2)CC3)nnc1-c1ccccc1 : 0.587

###

Species on record: Homo sapiens
Experiment: Selectivity ratio of Ki for human dopamine D2 long receptor to Ki for human dopamine D3 receptor
MEASURED_ENDPOINT: Ratio Ki

Consider the following illustrative entries.
Cn1c(SCCCN2CCC3(CC2)CCN(c2cccc(Cl)c2Cl)CC3)nnc1-c1ccccc1    91
Cn1c(SCCCN2CCC3(CC2)CCN(c2ccccn2)CC3)nnc1-c1ccccc1    96.1
COc1ccc(N2CCC3(CCN(CCCSc4nnc(-c5ccccc5)n4C)CC3)CC2)cc1    1070

I = COc1ccccc1N1CCC12CN(CCCSc1nnc(-c3ccccc3)n1C)C2
II = COc1ccccc1N1CCC2(CCN(CCCSc3nnc(-c4ccccc4)n3C)C2)C1 (racemic)
III = Cn1c(SCCCN2CCC3(CC2)CCN(c2ccc(F)cc2)CC3)nnc1-c1ccccc1
// query Could you please sort these 3 entries by Ratio Ki from high to low? Give the labels in the order requested.
// result III, II, I
(III: 383, II: 264, I: 24)

###

Target: D(3) dopamine receptor (Homo sapiens)
Sequence (P35462 whole entry): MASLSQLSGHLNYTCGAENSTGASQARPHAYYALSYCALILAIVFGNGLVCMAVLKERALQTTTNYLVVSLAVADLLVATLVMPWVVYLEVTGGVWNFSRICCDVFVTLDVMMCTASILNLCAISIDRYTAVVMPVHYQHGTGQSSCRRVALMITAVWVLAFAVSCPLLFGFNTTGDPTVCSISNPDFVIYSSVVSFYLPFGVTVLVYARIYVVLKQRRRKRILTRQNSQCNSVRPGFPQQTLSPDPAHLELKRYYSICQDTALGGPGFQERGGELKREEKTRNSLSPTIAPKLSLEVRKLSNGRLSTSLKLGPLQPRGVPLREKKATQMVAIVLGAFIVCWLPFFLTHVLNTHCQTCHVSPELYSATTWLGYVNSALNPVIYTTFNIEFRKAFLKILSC
Assay: Displacement of [125I]ABN from human dopamine D3 receptor expressed in HEK293 cell membranes after 60 mins by scintillation counting method
pKi: −log10 of the molar value.
MEASURED_ENDPOINT: pKi

Consider the following illustrative entries.
COc1ccc(N2CCC3(CCN(CCCSc4nnc(-c5ccccc5)n4C)CC3)CC2)cc1    7.01
Cn1c(SCCCN2CCC3(CC2)CCN(c2ccccn2)CC3)nnc1-c1ccccc1    6.06
COc1ccccc1N1CCC2(CN(CCCSc3nnc(-c4ccccc4)n3C)C2)C1    6.72
Cn1c(SCCCN2CC3(CCN3c3ccc(F)cc3)C2)nnc1-c1ccccc1    4.74
COc1ccccc1N1CCN(CCCSc2nnc(-c3ccccc3)n2C)CC1    8.19

P = Cn1c(SCCCN2CCC3(CC2)CCN(c2ccc(F)cc2)CC3)nnc1-c1ccccc1
Q = Cn1c(SCCCN2CCC3(CC2)CCN(c2cccc(Cl)c2Cl)CC3)nnc1-c1ccccc1
// query Please state the entry with greater pKi among P and Q . Lab log: write the label of the selected item as the result.
// result P

###

Biological target: UniProtKB P14416
Experiment: Displacement of [125I]ABN from human dopamine D2 long receptor expressed in HEK293 cell membranes after 60 mins by scintillation counting method
MEASURED_ENDPOINT: Ki (µM)

Consider the following illustrative entries.
COc1ccccc1N1CCC12CCN(CCCSc1nnc(-c3ccccc3)n1C)CC2    29.3
Cn1c(SCCCN2CCC3(CC2)CCN(c2ccccn2)CC3)nnc1-c1ccccc1    83.7
COc1ccccc1N1CC2(CN(CCCSc3nnc(-c4ccccc4)n3C)C2)C1    21.2
COc1ccccc1N1CCC12CN(CCCSc1nnc(-c3ccccc3)n1C)C2    115
COc1ccccc1N1CCC2(CCN(CCCSc3nnc(-c4ccccc4)n3C)CC2)CC1    10.9
COc1ccc(N2CCC3(CCN(CCCSc4nnc(-c5ccccc5)n4C)CC3)CC2)cc1    105

I = COc1ccccc1N1CCN(CCCSc2nnc(-c3ccccc3)n2C)CC1
II = Cn1c(SCCCN2CCC3(CC2)CCN(c2cccc(C#N)c2)CC3)nnc1-c1ccccc1
III = COc1ccccc1N1CCC2(CCN(CCCSc3nnc(-c4ccccc4)n3C)C2)C1 (racemic)
// query Could you please sort these 3 entries by Ki from high to low? Give the labels in the order requested.
// result II, III, I
(II: 57.1 µM, III: 6.37 µM, I: 0.26 µM)

###

Organism: Homo sapiens
Assay: Selectivity ratio of Ki for human dopamine D2 long receptor to Ki for human dopamine D3 receptor
MEASURED_ENDPOINT: Ratio Ki

A = COc1ccccc1N1CC2(CCN(CCCSc3nnc(-c4ccccc4)n3C)CC2)C1
B = COc1ccccc1N1CC2(CN(CCCSc3nnc(-c4ccccc4)n3C)C2)C1
// query Record comparison, field Ratio Ki: mark the lower of A and B . Lab log: write the label of the selected item as the result.
// result B

a = COc1ccccc1N1CCC12CCN(CCCSc1nnc(-c3ccccc3)n1C)CC2
b = COc1ccccc1N1CCC2(CN(CCCSc3nnc(-c4ccccc4)n3C)C2)C1
// query Please state the entry with greater Ratio Ki among a and b . Lab log: write the label of the selected item as the result.
// result b

Just for reference, ChEMBL document CHEMBL4028897 is where these values come from.
